- Test System: HLA-A*0202 (Homo sapiens, UniProt P04439, D140Y/D185E/D98H/E176V/E277Q/G131W/G231S/I119L/I121R/I166T/I218V/L180W/L300P/L318F/N151K/N90K/P208A/P217A/Q67R/Q86G/Q94H/R138H/R169H/T345S)
- Test Description: HLA class I binding assay, purified HLA, inhibition of 125I-labelled probe peptide
- Test Settings: A2 supermotif cross-reactive binding data
Result Type: IC50 (µM)
Your answer should be a plain number; it is taken to be in µM.

Molecule	Result Type	Measured
CC(C)C[C@H](NC(=O)[C@H](Cc1ccccc1)NC(=O)[C@@H](NC(=O)[C@@H](N)C(C)C)C(C)C)C(=O)N[C@H](C(=O)N[C@@H](CC(C)C)C(=O)N[C@@H](CO)C(=O)N[C@H](C(=O)N[C@H](C(=O)N[C@@H](Cc1c[nH]c2ccccc12)C(=O)N[C@H](C(=O)O)C(C)C)[C@@H](C)O)C(C)C)[C@@H](C)O [Peptide 63.0185]	IC50	0.088

Prompt: Any idea what its IC50 is? The molecule is CC[C@H](C)[C@H](NC(=O)[C@H](Cc1c[nH]c2ccccc12)NC(=O)[C@@H](NC(=O)[C@@H](NC(=O)[C@H](CO)NC(=O)[C@H](CC(C)C)NC(=O)[C@@H](NC(=O)[C@H](CC(C)C)NC(=O)[C@H](Cc1ccccc1)NC(=O)[C@@H](NC(=O)[C@@H](N)C(C)C)C(C)C)[C@@H](C)O)C(C)C)[C@@H](C)O)C(=O)O [Peptide 1419.25]
Completion: 0.159

----------
- Test System: HLA-A*6802 (Homo sapiens, UniProt P04439, A269V/D140Y/D185E/E176V/E277Q/E87N/F33Y/G231S/I121R/I166T/I218V/L180W/L300P/L318F/N151K/P208A/P217A/Q86R/R138H/R169H/S129P/T345S/V36M)
- Test Description: HLA class I binding assay, purified HLA, inhibition of 125I-labelled probe peptide
- Test Settings: A2 supermotif cross-reactive binding data; read-out: A*6802 nM
# pIC50 per record follows
As a rule, pIC50 stands for the negative log10 of the concentration, concentration in M.

Compound	Result Type	Measured
CC(C)C[C@H](NC(=O)[C@H](CC(=O)O)NC(=O)CNC(=O)[C@H](CCC(=O)O)NC(=O)[C@@H]1CCCN1C(=O)[C@@H](NC(=O)CN)[C@@H](C)O)C(=O)N[C@H](C(=O)N[C@@H](Cc1ccc(O)cc1)C(=O)N[C@H](C(=O)O)C(C)C)C(C)C [Peptide 1418.29]	pIC50	6.24

From here, focus on the item given below.
Prompt: Requested field: pIC50. Item: CC[C@H](C)[C@H](NC(=O)[C@H](CO)NC(=O)[C@@H](NC(=O)CN)C(C)C)C(=O)N[C@@H](Cc1c[nH]c2ccccc12)C(=O)N[C@@H](CC(N)=O)C(=O)N1CCC[C@H]1C(=O)N[C@H](C(=O)N[C@@H](CC(C)C)C(=O)N[C@H](C(=O)O)C(C)C)[C@@H](C)CC [Peptide 63.0041]
Completion: 5.64

----------
Property: pIC50; scope: individual compounds
- Test System: HLA-A*0206 (Homo sapiens, UniProt P04439, D140Y/D185E/D98H/E176V/E277Q/F33Y/G131W/G231S/I119V/I121R/I166T/I218V/L300P/L318F/N151K/N90K/P208A/P217A/Q86G/Q94H/R138H/R169H/T345S)
- Test Description: HLA class I binding assay, purified HLA, inhibition of 125I-labelled probe peptide
- Test Settings: A*[…], A2 supermotif cross-reactive binding data
Value format note: pIC50 is -log10 of concentration (mol/L); just state the number.

Please review the following examples before continuing.
Compound	pIC50
CC[C@H](C)[C@H](NC(=O)[C@H](CO)NC(=O)[C@@H](NC(=O)CNC(=O)[C@H](CCC(=O)O)NC(=O)[C@@H]1CCCN1C(=O)[C@@H]1CCCN1C(=O)[C@H](Cc1ccccc1)NC(=O)[C@H](CC(C)C)NC(=O)[C@H](C)N)C(C)C)C(=O)O [Peptide 1419.6]	5.58
CSCC[C@H](NC(=O)[C@H](Cc1ccccc1)NC(=O)[C@H](CCC(=O)O)NC(=O)[C@@H](NC(=O)[C@@H](NC(=O)[C@@H](N)CCCCN)C(C)C)[C@@H](C)O)C(=O)N[C@@H](CC(C)C)C(=O)N[C@@H](CS)C(=O)N[C@H](C(=O)O)C(C)C [Peptide 1418.21]	7.47
CC(C)C[C@H](NC(=O)[C@H](CO)NC(=O)[C@H](CC(C)C)NC(=O)[C@H](CO)NC(=O)[C@H](C)NC(=O)[C@H](C)NC(=O)[C@H](CCCNC(=N)N)NC(=O)[C@H](C)NC(=O)[C@H](CC(C)C)NC(=O)[C@@H](N)CC(C)C)C(=O)O [Peptide 20.0203]	5.03
CC[C@H](C)[C@H](NC(=O)[C@@H]1CCCN1C(=O)[C@H](CCC(N)=O)NC(=O)[C@H](Cc1c[nH]c2ccccc12)NC(=O)[C@H](CC(C)C)NC(=O)[C@H](CC(C)C)NC(=O)[C@H](CC(C)C)NC(=O)[C@@H]1CCCN1)C(=O)N1CCC[C@H]1C(=O)N[C@H](C(=O)O)C(C)C [Peptide 63.0042]	6.47

Prompt: Could you share which pIC50 value was measured for CC(C)C[C@H](NC(=O)[C@H](CC(C)C)NC(=O)[C@@H](N)CC(C)C)C(=O)N[C@@H](C)C(=O)N[C@@H](CCCNC(=N)N)C(=O)N[C@@H](C)C(=O)N[C@@H](C)C(=O)N[C@@H](CO)C(=O)N[C@H](C(=O)O)C(C)C [Peptide 60.0201] ?
Completion: 7.02

Prompt: Returns the measured pIC50 for the input compound. Input: CSCC[C@H](NC(=O)[C@H](CCC(N)=O)NC(=O)[C@H](CC(C)C)NC(=O)CNC(=O)[C@H](CO)NC(=O)[C@@H](NC(=O)[C@@H](N)[C@@H](C)O)C(C)C)C(=O)N[C@@H](C)C(=O)N[C@H](C(=O)O)C(C)C [Peptide 60.0213]
Completion: 6.71

Prompt: Dear colleague, I am looking for the recorded pIC50 of the following compound: CC(C)C[C@H](NC(=O)[C@H](CO)NC(=O)[C@@H](NC(=O)[C@H](CS)NC(=O)[C@H](CCC(N)=O)NC(=O)[C@H](CC(C)C)NC(=O)[C@@H](N)CO)C(C)C)C(=O)N[C@@H](Cc1c[nH]cn1)C(=O)N[C@H](C(=O)O)C(C)C [Peptide 1418.19]
Completion: 5.39

Prompt: Quick one: pIC50 for CC(C)C[C@H](NC(=O)[C@H](CCC(=O)O)NC(=O)[C@H](CCCCN)NC(=O)[C@H](C)NC(=O)[C@H](CC(C)C)NC(=O)[C@@H](N)C(C)C)C(=O)N[C@@H](CCCCN)C(=O)N[C@@H](Cc1ccccc1)C(=O)N[C@H](C(=O)N[C@H](C(=O)O)C(C)C)C(C)C [Peptide 63.0034] ?
Completion: 7.07
